Test system: 422866-222-R5-J1-PDC complex spheroids viability;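 also: spheroids exposed to compounds for 7 days; 100% = DMSO vehicle control viability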
Assay: Anticancer human tumor 422866-222-R5-J1-PDC patient-derived pancreatic adenocarcinoma cell line growth inhibition [RAS]
Details: second compound 0.0316 µM; first compound 1 µM; hits give low values
Answer each item with its documented viability, T/C.
Numbers only, in %.

# MOLECULE, REPORTED ENDPOINT, REPORTED VALUE
measured = [
    ("Cc1nc(N2CCC3(CC2)COC(C)C3N)c(CO)nc1Sc1ccnc(N)c1Cl (stereo not given) + C=CC(=O)N1CCN(c2nc(OCC3CCCN3C)nc3c(F)c(-c4nc(N)cc(C)c4C(F)(F)F)c(Cl)cc23)C(C)C1", "viability, T/C", 13.8),
    ("CC1(O)CCCC1n1c(=O)c(C(F)F)cc2cnc(NC3CCN(S(C)(=O)=O)CC3)nc21 (stereo not given) + C=CC(=O)N1CCN(c2nc(OCC3CCCN3C)nc3c(F)c(-c4nc(N)cc(C)c4C(F)(F)F)c(Cl)cc23)C(C)C1", "viability, T/C", 21.6),
    ("CC(C)NCC(C(=O)N1CCN(c2ncnc3c2C(C)CC3O)CC1)c1ccc(Cl)cc1 (stereo not given) + C=CC(=O)N1CCN(c2nc(OCC3CCCN3C)nc3c(F)c(-c4nc(N)cc(C)c4C(F)(F)F)c(Cl)cc23)C(C)C1", "viability, T/C", 14.9),
    ("CCC(CC)c1cc(NC2CCC(N)C2)n2nccc2n1 (stereo not given) + C=CC(=O)N1CCN(c2nc(OCC3CCCN3C)nc3c(F)c(-c4nc(N)cc(C)c4C(F)(F)F)c(Cl)cc23)C(C)C1", "viability, T/C", 27.2),
    ("CC(=O)OC12COC1CC(O)C1(C)C(=O)C(O)C3=C(C)C(OC(=O)C(O)C(NC(=O)OC(C)(C)C)c4ccccc4)CC(O)(C(OC(=O)c4ccccc4)C21)C3(C)C (stereo not given) + C=CC(=O)N1CCN(c2nc(OCC3CCCN3C)nc3c(F)c(-c4nc(N)cc(C)c4C(F)(F)F)c(Cl)cc23)C(C)C1", "viability, T/C", 17),
    ("CCC(CC)c1cc(NC2CCC(N)C2)n2nccc2n1 (stereo not given) + C#Cc1c(F)ccc2cc(O)cc(-c3ncc4c(N5CC6CCC(C5)N6)nc(OCC56CCCN5CC(F)C6)nc4c3F)c12", "viability, T/C", 75.7),
    ("O=C(c1ccc(F)c(F)c1Nc1ccc(I)cc1F)N1CC(O)([C@@H]2CCCCN2)C1 + C=CC(=O)N1CCN(c2nc(OCC3CCCN3C)nc3c(F)c(-c4nc(N)cc(C)c4C(F)(F)F)c(Cl)cc23)C(C)C1", "viability, T/C", 14.6),
    ("CCN1CCN(Cc2ccc(Nc3ncc(F)c(-c4cc(F)c5nc(C)n(C(C)C)c5c4)n3)nc2)CC1 + C=CC(=O)N1CCN(c2nc(OCC3CCCN3C)nc3c(F)c(-c4nc(N)cc(C)c4C(F)(F)F)c(Cl)cc23)C(C)C1", "viability, T/C", 30.5),
    ("Nc1ccn(C2OC(CO)C(O)C2(F)F)c(=O)n1 (stereo not given) + C#Cc1c(F)ccc2cc(O)cc(-c3ncc4c(N5CC6CCC(C5)N6)nc(OCC56CCCN5CC(F)C6)nc4c3F)c12", "viability, T/C", 34.1),
]

Fill in: viability, T/C of C=CC(=O)Nc1cc(Nc2nccc(-c3cn(C)c4ccccc34)n2)c(OC)cc1N(C)CCN(C)C + C=CC(=O)N1CCN(c2nc(OCC3CCCN3C)nc3c(F)c(-c4nc(N)cc(C)c4C(F)(F)F)c(Cl)cc23)C(C)C1 is ___
12.2
